meta.source: patent US5773414A

Molecular target: ETA (Oryctolagus cuniculus, UniProt A5A8K3)
Construct: The cells used were rabbit renal artery vascular smooth muscle cells; endogenous in cells
Sequence (A5A8K3 21-427): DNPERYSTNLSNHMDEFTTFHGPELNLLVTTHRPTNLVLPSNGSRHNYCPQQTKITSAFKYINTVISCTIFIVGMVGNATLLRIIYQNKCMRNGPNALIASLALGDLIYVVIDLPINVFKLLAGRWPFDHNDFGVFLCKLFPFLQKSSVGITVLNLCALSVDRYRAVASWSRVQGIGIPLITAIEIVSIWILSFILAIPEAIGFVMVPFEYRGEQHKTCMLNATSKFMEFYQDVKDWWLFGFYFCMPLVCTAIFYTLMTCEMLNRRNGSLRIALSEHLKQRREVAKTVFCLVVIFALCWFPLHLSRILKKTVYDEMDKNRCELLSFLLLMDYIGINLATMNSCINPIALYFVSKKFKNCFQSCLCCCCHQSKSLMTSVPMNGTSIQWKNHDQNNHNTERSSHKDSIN
Assay: Endothelin Receptor Binding Assay-A (ETA), intact cell binding of [125I]-ET-1
Conditions: Table IIa; rabbit renal artery vascular smooth muscle cells; read-out: Binding Assay IC50 at Receptor Subtypes ETA
Square brackets hold non-standard residues; d marks the D form. Peptide text beside a SMILES is read from it. dDip = N[C@@H](C(=O)O)C(c1ccccc1)c1ccccc1
property-name: pIC50
// returns pIC50 (minus log10 of molar concentration), number only

CC[C@H](C)[C@H](NC(=O)[C@@H](NC(=O)[C@H](CC(=O)O)NC(=O)[C@H](CC(C)C)NC(=O)[C@H](NC(C)=O)C(c1ccccc1)c1ccccc1)C(C)C)C(=O)N[C@@H](Cc1c[nH]c2ccccc12)C(=O)O [Example 81, Ac--D--Dip--Leu--Asp--Val--Ile--Trp] (Ac-[dDip]LDVIW-OH) = 7.82

Query molecule follows.
Reported pIC50 of CC[C@H](C)[C@H](NC(=O)[C@H](CC(=O)O)NC(=O)[C@H](C)NC(=O)[C@@H](Cc1ccccc1)NC(C)=O)C(=O)N[C@H](C(=O)N[C@@H](Cc1c[nH]c2ccccc12)C(=O)O)[C@@H](C)CC [Example 59, Ac--D--Phe--Ala--Asp--Ile--Ile--Trp] (Ac-[dF]ADIIW-OH) : 6.40
